Cited source for all entries: patent US8119624B2

Provide the reported Emax of each item.
biological target: Full-length glucokinase (beta cell isoform) (Homo sapiens, UniProt P35557); construct: Full-length glucokinase (beta cell isoform) was His-tagged at N-terminus; His tag (N); made in house; experiment: Glucokinase biochemical assay (PK/LDH-coupled, NADH depletion at 340 nm): % activation, EC50, % max activation; details: 5 mM glucose; fitted maximum activation; read-out: % Max Activation
Sequence (P35557 whole entry, species assumed, canonical isoform): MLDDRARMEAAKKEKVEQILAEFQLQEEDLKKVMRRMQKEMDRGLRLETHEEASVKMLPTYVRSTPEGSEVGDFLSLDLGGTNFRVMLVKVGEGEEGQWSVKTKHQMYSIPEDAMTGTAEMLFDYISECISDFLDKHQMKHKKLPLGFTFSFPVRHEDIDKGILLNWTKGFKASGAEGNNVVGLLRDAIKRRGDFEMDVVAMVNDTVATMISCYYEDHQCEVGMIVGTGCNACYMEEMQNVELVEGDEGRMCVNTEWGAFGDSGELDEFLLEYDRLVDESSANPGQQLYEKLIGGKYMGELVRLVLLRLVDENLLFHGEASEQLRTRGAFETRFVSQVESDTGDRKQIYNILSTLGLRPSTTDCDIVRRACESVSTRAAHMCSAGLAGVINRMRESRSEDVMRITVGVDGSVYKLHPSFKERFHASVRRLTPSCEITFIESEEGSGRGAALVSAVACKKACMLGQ
The response must be a number in % with no trailing unit.

Q. Find the measured Emax of CCNC(=O)c1ccc(Oc2cc(C(=O)Nc3cnn(C)n3)cc3c2CC(C)(C)O3)cn1 with Full-length glucokinase (beta cell isoform) (Homo sapiens, UniProt P35557) as test system.
A. 258

Q. Find the measured Emax of Cn1ccc(NC(=O)c2cc(Oc3ccc(C(=O)N4CCCCC4)c(F)c3)c3c(c2)OC(C)(C)C3)n1 with Full-length glucokinase (beta cell isoform) (Homo sapiens, UniProt P35557) as test system.
A. 107

Q. Find the measured Emax of CCOc1ccc(NC(=O)c2cc(Oc3ccc(S(C)(=O)=O)cc3)c3cc(C)oc3c2)nc1 with Full-length glucokinase (beta cell isoform) (Homo sapiens, UniProt P35557) as test system.
A. 139

Q. Find the measured Emax of CN(C)C(=O)c1ccc(Oc2cc(C(=O)Nc3ccn(C)n3)cc3c2CC(C)(C)O3)c(Cl)c1 with Full-length glucokinase (beta cell isoform) (Homo sapiens, UniProt P35557) as test system.
A. 163
